- Test system: breast cancer cell line (MDA-MB-231)
We begin with a simple list: items and their reported GI50.
METRIC: GI50

>>> readout_value("C[S+](C)[O-] [DMSO, dimethyl sulfoxide, reference compound]")
"~800 mM"
>>> readout_value("CC1(C[S+]([O-])CC2(C)COC2)COC1 [Compound 3]")
"~200 mM"

The reported numbers originate from patent US10251860B2.
